# SYSTEM_UNDER_TEST: Androgen receptor (AR) (Homo sapiens, UniProt P10275)
# Construct: endogenous in cells; host or cells: VCaP
# Sequence (P10275 whole entry): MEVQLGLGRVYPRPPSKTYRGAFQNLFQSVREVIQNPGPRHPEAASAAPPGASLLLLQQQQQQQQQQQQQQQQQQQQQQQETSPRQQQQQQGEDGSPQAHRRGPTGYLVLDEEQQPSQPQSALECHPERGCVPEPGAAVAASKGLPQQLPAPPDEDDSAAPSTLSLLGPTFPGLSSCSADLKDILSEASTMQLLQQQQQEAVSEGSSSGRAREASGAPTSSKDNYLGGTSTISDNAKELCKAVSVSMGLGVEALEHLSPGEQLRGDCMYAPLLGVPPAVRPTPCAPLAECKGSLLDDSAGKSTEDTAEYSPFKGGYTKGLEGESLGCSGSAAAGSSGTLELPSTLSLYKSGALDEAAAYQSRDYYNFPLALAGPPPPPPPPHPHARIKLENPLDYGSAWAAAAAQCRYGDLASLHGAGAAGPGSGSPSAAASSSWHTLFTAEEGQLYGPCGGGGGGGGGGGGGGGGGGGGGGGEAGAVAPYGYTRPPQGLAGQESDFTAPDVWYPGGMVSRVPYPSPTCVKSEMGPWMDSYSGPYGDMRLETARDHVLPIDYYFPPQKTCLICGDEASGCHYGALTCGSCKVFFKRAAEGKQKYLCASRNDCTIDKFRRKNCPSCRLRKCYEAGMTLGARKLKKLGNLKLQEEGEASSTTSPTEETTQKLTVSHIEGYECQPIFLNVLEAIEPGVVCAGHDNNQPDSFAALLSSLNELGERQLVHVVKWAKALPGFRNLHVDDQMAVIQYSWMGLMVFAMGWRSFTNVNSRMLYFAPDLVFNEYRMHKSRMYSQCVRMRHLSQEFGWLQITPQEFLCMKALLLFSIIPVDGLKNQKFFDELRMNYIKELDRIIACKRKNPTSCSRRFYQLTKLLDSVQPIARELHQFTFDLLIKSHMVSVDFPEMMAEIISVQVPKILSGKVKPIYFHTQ
# PROCEDURE_DETAILS: Cellular assay of androgen receptor (AR) degradation (VCaP cells, ELISA)
# Assay type: cell-based
# EXPERIMENTAL_SETUP: 4 h; androgen receptor, VCaP cells, PROTAC concentration 1 μM, relative to DMSO control; read-out: Target protein degradation range
OBSERVATION_TYPE: Dmax at 1 µM

>  <COMPOUND>
CN[C@@H](C)C(=O)N[C@H](C(=O)N1CC[C@@H]2CCN(CCc3ccc(OCCOCCOCCNc4ccc(C(=O)N[C@H]5C(C)(C)[C@H](Oc6ccc(C#N)c(Cl)c6)C5(C)C)cc4)cc3)C[C@@H]21)C1CCCCC1 (mixture of isomers)

>  <Dmax at 1 µM>
0 to 30%

$$$$
>  <COMPOUND>
CN[C@@H](C)C(=O)N[C@H](C(=O)N1CCC[C@H]1C(=O)N[C@H]1c2ccccc2C[C@H]1OCCOCCOCCOCCOCCOc1ccc(C(=O)NC2C(C)(C)C(Oc3ccc(C#N)c(Cl)c3)C2(C)C)cc1)C(C)(C)C (stereo partly drawn)

>  <Dmax at 1 µM>
30 to 60%

$$$$

// next item, Dmax at 1 µM requested
Item CN[C@@H](C)C(=O)N[C@H](C(=O)N1CCC[C@H]1C(=O)N[C@H]1c2ccccc2C[C@H]1OCCOCCOCCOCCOc1ccc(N2C(=S)N(c3ccc(C#N)c(C(F)(F)F)c3)C(=O)C2(C)C)cc1)C(C)(C)C with Androgen receptor (AR) (Homo sapiens, UniProt P10275) - Dmax at 1 µM?
0 to 30%
